- measurement-notes: Phase 1 pharmacokinetics of ilorasertib in plasma
- Type: in vivo, human
- condition-info: human, plasma, po, 10 mg
endpoint-label: AUC(0-inf) (ng·h/mL)
Only the number, expressed in ng·h/mL, is required.

Prompt line: What value of measured AUC(0-inf) is listed for Nc1ncc(-c2cnn(CCO)c2)c2scc(-c3ccc(NC(=O)Nc4cccc(F)c4)cc3)c12 ?
Response line: 710

* * *

- measurement-notes: Phase 1 pharmacokinetics of ilorasertib in plasma
- Assay type: in vivo, human
- condition-info: human, plasma, po, 320 mg, AUC0–24, arm B, oral twice weekly, 320 mg, day 1, N=6, mean ± SD
endpoint-label: AUC(0-t) (ng·h/mL)
The reply should contain only the number, in ng·h/mL.

Prompt line: # lookup: AUC(0-t) of Nc1ncc(-c2cnn(CCO)c2)c2scc(-c3ccc(NC(=O)Nc4cccc(F)c4)cc3)c12
Response line: 29700
